Experiment Description: Partition coefficient (logP)
Type: physicochemical
Setup Conditions: octanol/water
Result Type: logP

CCCCCCCCCCCCn1c(=O)[nH]c(=O)c2[nH]c(O)nc21; 2.9

[a] CCCCCCn1c(=O)[nH]c(=O)c2[nH]c(O)nc21
[b] CCCCCCCCn1c(=O)[nH]c(=O)c2[nH]c(O)nc21
Look at a and b . Which one has the lower recorded logP number? Selection: enter the item's label. a

* * *

Experiment Description: Partition coefficient (logP)
Format: physicochemical
Setup Conditions: octanol/water
Result Type: logP

Cn1c(N)c(N)c(=O)[nH]c1=O; -1.4
CCCCCCCCn1c(N)c(N)c(=O)[nH]c1=O; 2.05

[A] CCCCCCn1c(N)c(N)c(=O)[nH]c1=O
[B] CCCCCCCCCCn1c(=O)[nH]c(=O)c2[nH]c(O)nc21
[C] CCCCCCCCCCn1c(N)c(N)c(=O)[nH]c1=O
[D] Nc1[nH]c(=O)[nH]c(=O)c1N
[E] O=c1[nH]c(=O)c2[nH]c(=O)[nH]c2[nH]1
Given 5 molecules, produce a descending ranking by logP. List labels; respect the requested ordering. C, B, A, D, E
